# Tgt: T1, native IL-5R α/β complex on cells (TF-1 cells; human eosinophils) (human, UniProt Q01344 21-420; P32927 17-897)
# T1 sequence (looked up) 1: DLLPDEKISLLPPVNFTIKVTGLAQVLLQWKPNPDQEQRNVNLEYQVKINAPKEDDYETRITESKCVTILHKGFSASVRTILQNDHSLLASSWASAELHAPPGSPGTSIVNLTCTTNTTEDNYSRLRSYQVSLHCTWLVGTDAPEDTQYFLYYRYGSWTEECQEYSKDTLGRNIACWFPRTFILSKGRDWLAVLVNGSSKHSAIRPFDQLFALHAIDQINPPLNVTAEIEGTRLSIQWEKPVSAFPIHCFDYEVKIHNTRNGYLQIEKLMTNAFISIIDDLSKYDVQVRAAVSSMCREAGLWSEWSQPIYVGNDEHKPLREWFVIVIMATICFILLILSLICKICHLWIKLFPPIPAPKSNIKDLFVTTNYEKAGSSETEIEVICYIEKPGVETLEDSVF
# T1 sequence (looked up) 2: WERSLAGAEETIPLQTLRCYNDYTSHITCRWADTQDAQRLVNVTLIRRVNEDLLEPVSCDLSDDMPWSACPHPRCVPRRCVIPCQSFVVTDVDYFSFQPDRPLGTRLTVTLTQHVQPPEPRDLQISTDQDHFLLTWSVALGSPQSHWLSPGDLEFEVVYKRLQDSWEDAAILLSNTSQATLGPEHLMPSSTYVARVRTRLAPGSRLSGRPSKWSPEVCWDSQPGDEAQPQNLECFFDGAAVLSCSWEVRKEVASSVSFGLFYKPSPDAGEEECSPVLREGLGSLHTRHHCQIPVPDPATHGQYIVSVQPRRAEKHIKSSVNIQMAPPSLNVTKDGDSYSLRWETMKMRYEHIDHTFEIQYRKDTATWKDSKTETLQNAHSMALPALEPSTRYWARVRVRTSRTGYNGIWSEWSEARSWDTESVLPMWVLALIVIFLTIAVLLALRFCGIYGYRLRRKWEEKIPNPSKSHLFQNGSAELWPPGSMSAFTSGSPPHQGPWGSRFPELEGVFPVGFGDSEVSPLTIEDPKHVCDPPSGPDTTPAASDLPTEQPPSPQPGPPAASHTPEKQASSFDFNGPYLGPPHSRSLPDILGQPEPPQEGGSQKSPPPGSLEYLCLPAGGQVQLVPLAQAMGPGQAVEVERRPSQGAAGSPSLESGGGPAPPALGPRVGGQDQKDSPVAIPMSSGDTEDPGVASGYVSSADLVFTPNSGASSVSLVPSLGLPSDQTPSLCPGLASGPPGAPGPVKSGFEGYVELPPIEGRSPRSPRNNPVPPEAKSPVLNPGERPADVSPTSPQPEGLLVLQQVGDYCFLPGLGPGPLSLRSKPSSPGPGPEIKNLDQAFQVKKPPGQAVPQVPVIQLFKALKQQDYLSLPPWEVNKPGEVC
# Assay name: cell-based or functional assay
Square brackets hold non-standard residues; d marks the D form. Dap = NC[C@H](N)C(=O)O
Property measured: Microphysiometer pIC50 (block of the TF-1 cell response to IL-5)

# Binder, Endpoint value
rows = [
    ("H-EGYVCVEWARCPTCK-OH (disulfide (positions not given here); also: dimer, intramolecular and intermolecular disulfide linkages, places not given here) [dimer of (H)-EGYVCVEWARCPTCK-(OH)]", 9.2),
    ("Ac-EGYV[Dap]VEWARCPTCR-NH2 (cysteine pairing not given here; also: homodimer, link between chains only in drawing) [dimer of two chains of residues 36-50 of SEQ ID NO: 9 (structure only in drawing CHEM-US-00014)]", 6.5),
    ("Ac-EGYVCVEWAACPTCR-NH2 (disulfide (positions not given here); also: dimer, intramolecular and intermolecular disulfides, places not given here) [dimer of (Ac)-EGYVCVEWAACPTCR-(NH2)]", 6.9),
    ("H-GYVCVEWARCPTCR-OH (disulfide (positions not given here); also: dimer, intramolecular and intermolecular disulfide linkages, places not given here) [dimer of (H)-GYVCVEWARCPTCR-(OH)]", 8.4),
]
